# Tested on: NCI-H596
# assay.protocol: relative viability (nuclei count vs DMSO), 5 days (fraction); higher = more cells survive
# conditions: first compound 0.2 µM

molecule	relative viability
Cc1csc(=NC2CCCCC2)n1/N=C/c1ccc(O)c(O)c1O [MIM1] + COc1cc2c(Oc3ccc(NC(=O)C4(C(=O)Nc5ccc(F)cc5)CC4)cc3F)ccnc2cc1OCCCN1CCOCC1 [Foretinib] (partner 0.25 µM)	0.886
CCNC(=O)c1noc(-c2cc(C(C)C)c(O)cc2O)c1-c1ccc(CN2CCOCC2)cc1 [Luminespib] + O=C(c1cc(Cc2n[nH]c(=O)c3ccccc23)ccc1F)N1CCN(C(=O)C2CC2)CC1 [Olaparib] (partner 8 µM)	0.602

* * *

# Tested on: NCI-H2228
# assay.protocol: relative viability (nuclei count vs DMSO), 5 days (fraction); higher = more cells survive
# conditions: first compound 0.6325 µM
Returns: string. Value is condition met if measured relative viability is below 0.6, and condition not met if it is greater than or equal to it.

molecule	experimental.system	group
Cc1csc(=NC2CCCCC2)n1/N=C/c1ccc(O)c(O)c1O [MIM1] + Nc1nc2[nH]cc(CCc3ccc(C(=O)N[C@@H](CCC(=O)O)C(=O)O)cc3)c2c(=O)[nH]1 [Pemetrexed] (partner 0.2 µM)	NCI-H2228	condition met
Cc1csc(=NC2CCCCC2)n1/N=C/c1ccc(O)c(O)c1O [MIM1] + O=C(CCCCCCC(=O)Nc1ccccc1)NO [Vorinostat] (partner 1 µM)	NCI-H2228	condition not met
CN1CCN(CCOc2cc(OC3CCOCC3)c3c(Nc4c(Cl)ccc5c4OCO5)ncnc3c2)CC1 [Saracatinib] + C[C@]1(O)C[C@@H](c2nc(-c3ccc4ccc(-c5ccccc5)nc4c3)c3c(N)nccn32)C1 [Linsitinib] (partner 1 µM)	NCI-H2228	condition met
Cc1csc(=NC2CCCCC2)n1/N=C/c1ccc(O)c(O)c1O [MIM1] + Cc1cc(Nc2cc(N3CCN(C)CC3)nc(Sc3ccc(NC(=O)C4CC4)cc3)n2)n[nH]1 [Tozasertib] (partner 0.1 µM)	NCI-H2228	condition met
Cc1csc(=NC2CCCCC2)n1/N=C/c1ccc(O)c(O)c1O [MIM1] + C[C@]1(O)C[C@@H](c2nc(-c3ccc4ccc(-c5ccccc5)nc4c3)c3c(N)nccn32)C1 [Linsitinib] (partner 1 µM)	NCI-H2228	condition not met
Cc1csc(=NC2CCCCC2)n1/N=C/c1ccc(O)c(O)c1O [MIM1] + CS(=O)(=O)N1CCN(Cc2cc3nc(-c4cccc5[nH]ncc45)nc(N4CCOCC4)c3s2)CC1 [Pictilisib] (partner 1 µM)	NCI-H2228	condition met

* * *

# Test system: LOU-NH91
# assay.protocol: relative viability (nuclei count vs DMSO), 5 days (fraction); higher = more cells survive
# conditions: first compound 0.253 µM
relative viability listing for selected compounds.

compound	relative viability
Nc1cccc2c1CN(C1CCC(=O)NC1=O)C2=O (centres undefined) [Lenalidomide] + NC(=O)Nc1cc(-c2cccc(F)c2)sc1C(=O)N[C@H]1CCCNC1 [AZD7762] (partner 0.2 µM)	0.781
Nc1cccc2c1CN(C1CCC(=O)NC1=O)C2=O (centres undefined) [Lenalidomide] + CC(=O)c1c(C)c2cnc(Nc3ccc(N4CCNCC4)cn3)nc2n(C2CCCC2)c1=O [Palbociclib] (partner 0.5 µM)	0.564
Nc1cccc2c1CN(C1CCC(=O)NC1=O)C2=O (centres undefined) [Lenalidomide] + CC(C)C[C@H](NC(=O)[C@H](Cc1ccccc1)NC(=O)c1cnccn1)B(O)O [Bortezomib] (partner 0.002 µM)	0.478
Nc1cccc2c1CN(C1CCC(=O)NC1=O)C2=O (centres undefined) [Lenalidomide] + CS(=O)(=O)CCNCc1ccc(-c2ccc3ncnc(Nc4ccc(OCc5cccc(F)c5)c(Cl)c4)c3c2)o1 [Lapatinib] (partner 2 µM)	0.771
Nc1cccc2c1CN(C1CCC(=O)NC1=O)C2=O (centres undefined) [Lenalidomide] + Nc1ncn([C@H]2C[C@H](O)[C@@H](CO)O2)c(=O)n1 [Decitabine] (partner 2 µM)	0.815
Nc1cccc2c1CN(C1CCC(=O)NC1=O)C2=O (centres undefined) [Lenalidomide] + N=C(N)NC(=N)NCCc1ccccc1 [Phenformin] (partner 250 µM)	0.681
Nc1cccc2c1CN(C1CCC(=O)NC1=O)C2=O (centres undefined) [Lenalidomide] + CC1(C)CCC(c2ccc(Cl)cc2)=C(CN2CCN(c3ccc(C(=O)NS(=O)(=O)c4ccc(N[C@H](CCN5CCOCC5)CSc5ccccc5)c(S(=O)(=O)C(F)(F)F)c4)cc3)CC2)C1 [Navitoclax] (partner 0.5 µM)	0.614
Nc1cccc2c1CN(C1CCC(=O)NC1=O)C2=O (centres undefined) [Lenalidomide] + C[C@@H](Oc1cc(-c2cnn(C3CCNCC3)c2)cnc1N)c1c(Cl)ccc(F)c1Cl [Crizotinib] (partner 1 µM)	0.73
Nc1cccc2c1CN(C1CCC(=O)NC1=O)C2=O (centres undefined) [Lenalidomide] + COc1cccc2cc(-c3nc([C@H]4CC[C@H](C(=O)O)CC4)n4ncnc(N)c34)[nH]c12 [OSI-027] (partner 0.5 µM)	0.769
